Each item that follows carries a reported IC50.
- ASSAYED TARGET: Brd4 bromodomain 1 (BRD4(1)) (Homo sapiens, UniProt O60885)
- ASSAY TEXT: Inhibition of tetra-acetylated histone H4 binding to Brd4 bromodomain 1, measured by FRET (HTRF)
- Parameters: made in house; host or cells: E. coli BL21(DE3)
- MEASUREMENT SETUP: 2 h at room temperature

What the record says about Cc1noc(C)c1-c1cc(-c2c(C)nn(C)c2C)cc2[nH]cnc12 [Example Compound 14] : IC50 is 3000 to 30000 nM

What the record says about Cc1nc2c(-c3cnccc3C(F)(F)F)cc(-c3c(C)noc3C)cc2[nH]1 [Example Compound 50] : IC50 is ≤ 300 nM

What the record says about COc1ccc(Cl)cc1-c1cc(-c2c(C)noc2C)cc2[nH]c(C)nc12 [Example Compound 107] : IC50 is ≤ 300 nM

What the record says about Cc1nc2c(-c3ccc4ocnc4c3)cc(-c3c(C)noc3C)cc2[nH]1 [Example Compound 136] : IC50 is ≤ 300 nM

What the record says about Cc1noc(C)c1Nc1cc(-c2c(C)noc2C)cc2[nH]cnc12 [Example Compound 42] : IC50 is ≤ 300 nM

What the record says about Cc1nc2c(-c3cn(C)nc3C)cc(-c3cn(C)nc3C)cc2[nH]1 [Example Compound 133] : IC50 is 3000 to 30000 nM

What the record says about Cc1ccc(C#N)cc1-c1cc(-c2c(C)noc2C)cc2[nH]c(N3CCN(C)CC3)nc12 [Example Compound 186] : IC50 is ≤ 300 nM

What the record says about Cc1nn(C)c(C)c1CNc1cc(-c2c(C)noc2C)cc2[nH]cnc12 [Example Compound 37] : IC50 is ≤ 300 nM

---

- ASSAYED TARGET: Brd4 bromodomain 1 (BRD4(1)) (Homo sapiens, UniProt O60885)
- ASSAY TEXT: Inhibition of tetra-acetylated histone H4 binding to Brd4 bromodomain 1, measured by FRET (HTRF)
- Parameters: made in house; host or cells: E. coli BL21(DE3)
- MEASUREMENT SETUP: 2 h at room temperature
ASSAY READOUT: IC50

Cc1nc2c(N3CCC3=O)cc(-c3c(C)noc3C)cc2[nH]1 [Example Compound 147] : 0.3 to 3 µM
Cc1nc2c(Oc3cccnc3C)cc(-c3c(C)noc3C)cc2[nH]1 [Example Compound 155] : ≤ 0.3 µM
Cc1noc(C)c1-c1cc2c(c(-c3c(C)noc3C)c1)OCCN2 [Example Compound 13] : ≤ 0.3 µM

Here's the next entry for you.
What the record says about Cc1noc(C)c1-c1cc(-c2c(C)nn(C)c2C)c2nc(NCc3ccccc3)[nH]c2c1 [Example Compound 212] : IC50 is ≤ 0.3 µM

---

Each item that follows carries a reported pIC50.
- ASSAYED TARGET: Brd4 bromodomain 1 (BRD4(1)) (Homo sapiens, UniProt O60885)
- ASSAY TEXT: Inhibition of tetra-acetylated histone H4 binding to Brd4 bromodomain 1, measured by FRET (HTRF)
- Design: made in house; host or cells: E. coli BL21(DE3)
- MEASUREMENT SETUP: 2 h at room temperature
pIC50: −log10 of the molar value.

Answered examples (6):
Cc1ncccc1-c1cc(-c2c(C)noc2C)cc2[nH]cnc12 : ≥ 6.52
Cc1noc(C)c1-c1nc(-c2c(C)noc2C)c2ccccc2n1 : 4.52 to 5.52
Cc1nc2c(Nc3ncccc3C)cc(-c3c(C)noc3C)cc2[nH]1 : 5.52 to 6.52
Cc1noc(C)c1-c1cc(N(CCc2ccccc2)CCc2ccccc2)c2nc[nH]c2c1 : 5.52 to 6.52
Cc1noc(C)c1-c1cc(-c2ccnn2C)c2nc[nH]c2c1 : ≥ 6.52
Cc1noc(C)c1-c1cc(-c2cnccc2C(F)(F)F)c2[nH]ncc2c1 : 5.52 to 6.52

What the record says about Cc1ccc(C#N)cc1-c1cc(-c2c(C)noc2C)cc2[nH]c(NCc3cccnc3)nc12 : pIC50 is ≥ 6.52

What the record says about Cc1noc(C)c1-c1cc(-c2c(C)nn(C)c2C)c2nc(N3CCN(C)CC3)[nH]c2c1 : pIC50 is ≥ 6.52

What the record says about COc1ccncc1Oc1cc(-c2c(C)noc2C)cc2[nH]c(C)nc12 : pIC50 is ≥ 6.52

What the record says about Cc1nc2c(-c3cc(F)ccc3C)cc(-c3c(C)noc3C)cc2[nH]1 : pIC50 is ≥ 6.52

What the record says about Cc1noc(C)c1-c1cc(Nc2ncccn2)c2nc[nH]c2c1 : pIC50 is ≥ 6.52

What the record says about Cc1nc2c(-c3c(Cl)cncc3Cl)cc(-c3c(C)noc3C)cc2[nH]1 : pIC50 is ≥ 6.52

What the record says about Cc1noc(C)c1-c1cc(-c2cccc(C(N)=O)c2)c2nc[nH]c2c1 : pIC50 is ≥ 6.52

What the record says about Cc1nc2c(-c3c(C)nc(N)nc3C)cc(-c3c(C)noc3C)cc2[nH]1 : pIC50 is ≥ 6.52

What the record says about Cc1nc2c(-c3ccc(F)c(F)c3C)cc(-c3c(C)noc3C)cc2[nH]1 : pIC50 is 5.52 to 6.52

What the record says about Cc1nc2c(-c3cnc4ccccc4c3)cc(-c3c(C)noc3C)cc2[nH]1 : pIC50 is ≥ 6.52

What the record says about Cc1nc2c(-c3ncsc3C)cc(-c3c(C)noc3C)cc2[nH]1 : pIC50 is 5.52 to 6.52

---

- ASSAYED TARGET: Brd4 bromodomain 1 (BRD4(1)) (Homo sapiens)
- ASSAY TEXT: Inhibition of tetra-acetylated histone H4 binding to Brd4 bromodomain 1, measured by FRET (HTRF)
- Set-up: made in house; host or cells: E. coli BL21(DE3)
- MEASUREMENT SETUP: 2 h at room temperature
pIC50: −log10 of the molar value.
Each item that follows carries a reported pIC50.

Answered examples (10):
Cc1noc(C)c1-c1cc(-c2cccc(C(N)=O)c2C)c2nc(N3CCOCC3)[nH]c2c1 : ≥ 6.52
Cc1nc2c(-c3ccc4nccnc4c3)cc(-c3c(C)noc3C)cc2[nH]1 : ≥ 6.52
Cc1nc2c(-c3cn(C)nc3C)cc(-c3c(C)noc3C)cc2[nH]1 : ≥ 6.52
Cc1nc2c(-c3cncc(F)c3C)cc(-c3c(C)noc3C)cc2[nH]1 : ≥ 6.52
Cc1nc2c(-c3ccc(N)nc3C)cc(-c3c(C)noc3C)cc2[nH]1 : ≥ 6.52
CC(=O)Nc1ccccc1-c1cc(-c2c(C)noc2C)cc2[nH]c(C)nc12 : ≥ 6.52
Cc1nc2c(-c3cnccc3C)cc(-c3c(C)noc3C)cc2[nH]1 : ≥ 6.52
Cc1noc(C)c1-c1cc(NCCc2ccccc2)c2nc[nH]c2c1 : 5.52 to 6.52
COc1c(-c2c(C)noc2C)cc2[nH]c(C)nc2c1-c1c(C)noc1C : 5.52 to 6.52
Cc1noc(C)c1-c1cc(-c2c(C)nn(C)c2C)c2nc(NC3CCN(C)CC3)[nH]c2c1 : ≥ 6.52

The reported Brd4 bromodomain 1 (BRD4(1)) (Homo sapiens) pIC50 of Cc1nc2c(-c3cc4ccccc4s3)cc(-c3c(C)noc3C)cc2[nH]1 is 5.52 to 6.52

The reported Brd4 bromodomain 1 (BRD4(1)) (Homo sapiens) pIC50 of Cc1nc2c(-c3ccc(Cl)cc3C)cc(-c3c(C)noc3C)cc2[nH]1 is 5.52 to 6.52

The reported Brd4 bromodomain 1 (BRD4(1)) (Homo sapiens) pIC50 of Cc1nc2c(N3CCCCC3=O)cc(-c3c(C)noc3C)cc2[nH]1 is 5.52 to 6.52

The reported Brd4 bromodomain 1 (BRD4(1)) (Homo sapiens) pIC50 of COc1ccc(Nc2cc(-c3c(C)noc3C)cc3[nH]cnc23)cc1 is 5.52 to 6.52

The reported Brd4 bromodomain 1 (BRD4(1)) (Homo sapiens) pIC50 of Cc1noc(C)c1-c1cc(NCc2ccccc2)c2nncn2c1 is ≥ 6.52

The reported Brd4 bromodomain 1 (BRD4(1)) (Homo sapiens) pIC50 of Cc1nc2c(-c3c(C)noc3C)cc(-c3c(C)cnn3C)cc2[nH]1 is 5.52 to 6.52

---

- ASSAYED TARGET: Brd4 bromodomain 1 (BRD4(1)) (Homo sapiens)
- ASSAY TEXT: Inhibition of tetra-acetylated histone H4 binding to Brd4 bromodomain 1, measured by FRET (HTRF)
- Design: made in house; host or cells: E. coli BL21(DE3)
- MEASUREMENT SETUP: 2 h at room temperature
ASSAY READOUT: IC50

Answered examples (5):
Cc1ccc(C(N)=O)cc1-c1cc(-c2c(C)noc2C)cc2[nH]c(NC3CCOCC3)nc12 [Example Compound 200] : ≤ 300 nM
Cc1noc(C)c1-c1cc(-c2c(C)nn(C)c2C)c2[nH]ncc2c1 [Example Compound 127] : ≤ 300 nM
Cc1noc(C)c1-c1cc(-c2c(C)noc2C)c2[nH]c(CC(F)(F)F)nc2c1 [Example Compound 76] : ≤ 300 nM
COc1nccc(C)c1-c1cc(-c2c(C)noc2C)cc2[nH]c(C)nc12 [Example Compound 114] : 300 to 3000 nM
Cc1noc(C)c1-c1cc(-c2c(C)nn(C)c2C)c2[nH]c([S+](C)[O-])nc2c1 (stereo not shown) [Example Compound 194] : ≤ 300 nM

What the record says about Cc1noc(C)c1-c1cc(-c2c(C)nn(C)c2C)c2nc[nH]c2c1 [Example Compound 9] : IC50 is ≤ 300 nM

What the record says about Cc1ccc(C(N)=O)cc1-c1cc(-c2c(C)noc2C)cc2[nH]c(NCc3cccnc3)nc12 [Example Compound 219] : IC50 is ≤ 300 nM

What the record says about Cc1nc2c(-c3ccc4nncn4c3)cc(-c3c(C)noc3C)cc2[nH]1 [Example Compound 156] : IC50 is ≤ 300 nM

What the record says about Cc1nc2c(-c3scnc3C)cc(-c3c(C)noc3C)cc2[nH]1 [Example Compound 104] : IC50 is ≤ 300 nM

What the record says about Cc1nc2c(-c3ccc4sncc4c3)cc(-c3c(C)noc3C)cc2[nH]1 [Example Compound 137] : IC50 is ≤ 300 nM

What the record says about Cc1nc2c(N3CCOCC3)cc(-c3c(C)noc3C)cc2[nH]1 [Example Compound 173] : IC50 is ≤ 300 nM

What the record says about Cc1noc(C)c1-c1cc(-c2c(C)noc2C)c2n[nH]c(=O)n2c1 [Example Compound 149] : IC50 is 3000 to 30000 nM

What the record says about Cc1ccncc1-c1cc(-c2c(C)noc2C)cc2[nH]cnc12 [Example Compound 20] : IC50 is ≤ 300 nM

What the record says about Cc1nc2c(-c3cc(C#N)ccc3C)cc(-c3c(C)noc3C)cc2[nH]1 [Example Compound 58] : IC50 is ≤ 300 nM

What the record says about Cc1nc2c(-c3c(C)cncc3C)cc(-c3c(C)noc3C)cc2[nH]1 [Example Compound 97] : IC50 is ≤ 300 nM

What the record says about Cc1noc(C)c1-c1cc(-c2c(C)nn(C)c2C)c2nc(N3CCC3)[nH]c2c1 [Example Compound 217] : IC50 is ≤ 300 nM

What the record says about Cc1nc2c(-c3cccnc3N)cc(-c3c(C)noc3C)cc2[nH]1 [Example Compound 82] : IC50 is 300 to 3000 nM

What the record says about Cc1ccncc1-c1cc(-c2c(C)noc2C)cc2[nH]c(N3CCOCC3)nc12 [Example Compound 196] : IC50 is 300 to 3000 nM

Values compiled from patent US9999616B2.
